Target: panel of 255 wild-type kinases (Homo sapiens, UniProt Q16288)
Sequence (Q16288 32-839): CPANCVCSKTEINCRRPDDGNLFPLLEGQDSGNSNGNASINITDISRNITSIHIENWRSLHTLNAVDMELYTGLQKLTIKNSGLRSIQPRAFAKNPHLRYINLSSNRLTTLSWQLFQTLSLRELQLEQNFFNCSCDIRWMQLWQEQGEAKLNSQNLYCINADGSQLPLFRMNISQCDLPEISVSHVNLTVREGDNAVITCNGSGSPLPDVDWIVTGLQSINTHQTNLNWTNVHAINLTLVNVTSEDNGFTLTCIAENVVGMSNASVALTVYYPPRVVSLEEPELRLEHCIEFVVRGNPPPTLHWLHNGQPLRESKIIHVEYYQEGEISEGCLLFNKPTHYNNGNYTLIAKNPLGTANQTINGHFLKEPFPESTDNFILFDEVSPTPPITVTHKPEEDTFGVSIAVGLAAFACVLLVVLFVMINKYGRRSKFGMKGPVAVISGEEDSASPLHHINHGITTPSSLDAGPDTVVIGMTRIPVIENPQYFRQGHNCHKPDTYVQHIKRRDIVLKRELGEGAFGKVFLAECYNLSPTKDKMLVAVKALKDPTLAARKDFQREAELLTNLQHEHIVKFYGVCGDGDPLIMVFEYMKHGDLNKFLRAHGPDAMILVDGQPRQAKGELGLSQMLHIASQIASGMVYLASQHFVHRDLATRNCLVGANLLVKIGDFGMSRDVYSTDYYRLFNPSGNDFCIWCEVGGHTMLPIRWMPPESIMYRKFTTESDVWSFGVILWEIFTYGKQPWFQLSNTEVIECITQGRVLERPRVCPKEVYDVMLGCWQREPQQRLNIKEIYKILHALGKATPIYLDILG
Method: Kinase panel profiling at 1 µmol/L (MSA or IMAP), percentage inhibition
Format: biochemical
Condition: kinase TRKC; 1 µmol/L single concentration; read-out: %-inhibition at 1 µmol/L, TRKC
Would you mind telling me the reported inhibition at 1 µM of each entry?
Enter your answer as a number in %; do not include the unit.

I would be grateful if you could share the reported inhibition at 1 µM for "CN1CCN(c2ccc(C(=O)Nc3n[nH]c4ccc(Cc5cc(F)cc(F)c5)cc34)c(NC3CCOCC3)c2)CC1" . 100

I am curious: what inhibition at 1 µM value has been reported for "Cc1cc(Nc2ncnc3ccc(NC4=NC(C)(C)CO4)cc23)ccc1Oc1ccn2ncnc2c1" ? 2.53

Quick one: inhibition at 1 µM for "COc1cc2ncnc(Nc3ccc(F)c(Cl)c3)c2cc1NC(=O)/C=C/CN1CCCCC1" ? -0.0882

// query inhibition at 1 µM value for entry "Cc1nc(NC(=O)N2CCC[C@H]2C(N)=O)sc1-c1ccnc(C(C)(C)C(F)(F)F)c1" 2.52
